Origin of values: patent US20160095843A1

- Tested on: MV-4-11 cells
Each record is given label 1 if its reported GI50 is strictly below 70 nM. Records at or above 70 nM are given label 0.

# example entries with known answers
(Q) Strictly below 70 nM in GI50? Cc1nn(C(C)C)c2c1C(c1ccc(Cl)cc1F)N(c1cc(C)c3nnc(C)n3c1)C2=O (stereo not shown)
(A) label 1

(Q) Strictly below 70 nM in GI50? CCn1nc(C)c2c1C(=O)N(c1cc(C)c3nnc(C)n3c1)C2c1ccc(Cl)cc1 (stereo not shown)
(A) label 1

(Q) Strictly below 70 nM in GI50? CCc1nn(C2CC2)c2c1[C@H](c1ccc(Cl)cc1)N(c1cc(C)c3nnc(C)n3c1)C2=O
(A) label 0

(Q) Strictly below 70 nM in GI50? Cc1cc(N2C(=O)c3c(cnn3C3CC3)C2c2ccc(Cl)cc2)cn(C)c1=O (stereo not shown)
(A) label 0

(Q) Strictly below 70 nM in GI50? COc1ncccc1-n1nc(C)c2c1C(=O)N(c1cc(C)c3nnn(C)c3n1)C2c1ccc(Cl)cc1 (stereo not shown)
(A) label 1

***
(Q) Strictly below 70 nM in GI50? CCc1nn(CCOC)c2c1C(c1ccc(Cl)cc1)N(c1cc(C)c3nnc(C)n3c1)C2=O (stereo not shown)
(A) label 1

(Q) Strictly below 70 nM in GI50? Cc1c2c(nn1C(C)C)C(=O)N(c1cc(Cl)c(=O)n(C)c1)C2c1ccc(Cl)cc1 (stereo not shown)
(A) label 1

(Q) Strictly below 70 nM in GI50? CCOC(=O)N1CC(n2nc(C)c3c2C(=O)N(c2cc(C)c(=O)n(C)c2)C3c2ccc(Cl)cc2)C1 (stereo not shown)
(A) label 0

(Q) Strictly below 70 nM in GI50? Cc1nn(-c2ccnn2C)c2c1[C@@H](c1ccc(Cl)cc1)N(c1cc(C)c3nnc(C)n3c1)C2=O
(A) label 1

(Q) Strictly below 70 nM in GI50? COc1ncccc1-n1nc(C)c2c1C(=O)N(c1cc(C)c3nnc(C)n3c1)C2c1ccc(Cl)cc1 (stereo not shown)
(A) label 1

(Q) Strictly below 70 nM in GI50? Cc1nn(C2CN(C)C2)c2c1C(c1ccc(Cl)cc1)N(c1cc(C)c3nnc(C)n3c1)C2=O (stereo not shown)
(A) label 1

(Q) Strictly below 70 nM in GI50? COc1ncccc1-n1nc(C)c2c1C(=O)N(c1cc(C)c(=O)n(C)c1)C2c1ccc(Cl)cc1 (stereo not shown)
(A) label 1

(Q) Strictly below 70 nM in GI50? Cc1nn(C2CC2)c2c1C(c1ccc(Cl)cc1)N(c1ccc3nnn(C)c3n1)C2=O (stereo not shown)
(A) label 0

(Q) Strictly below 70 nM in GI50? Cc1nn(C2CC2)c2c1C(c1ccc(Cl)cc1F)N(c1cc(C)c(=O)n(C)c1)C2=O (stereo not shown)
(A) label 0

(Q) Strictly below 70 nM in GI50? COc1ncccc1-n1nc(C)c2c1C(=O)N(c1cc(Cl)c(=O)n(C)c1)C2c1ccc(Cl)cc1 (stereo not shown)
(A) label 0
